procedureSummary: Pharmacokinetics in humans, MRTX1133 formulation, oral, single and multiple doses
Assay type: in vivo
details: human, plasma, po, 400 mg, single oral dose of 400 mg, fasted; geometric mean of subjects; read-out: AUC0-inf, Geo Mean

compoundString	AUC0-inf (ng·h/mL)
C#Cc1c(F)ccc2cc(O)cc(-c3ncc4c(N5C[C@H]6CC[C@@H](C5)N6)nc(OC[C@@]56CCCN5C[C@H](F)C6)nc4c3F)c12	304

====

procedureSummary: Pharmacokinetics in humans, MRTX1133 formulation, oral, single and multiple doses
Type: in vivo
details: human, plasma, po, 800 mg, multiple oral doses of 800 mg BID, fasted; 4 h; Mean of subjects; read-out: Plasma concentration
assayEndpoint: concentration at 4 h (ng/mL)

compoundString	unitName	assayResult
C#Cc1c(F)ccc2cc(O)cc(-c3ncc4c(N5C[C@H]6CC[C@@H](C5)N6)nc(OC[C@@]56CCCN5C[C@H](F)C6)nc4c3F)c12	ng/mL	138

Values were extracted from patent US20250120981A1.
